Cited source: patent US20110028552A1

# targetOfAssay: hNav 1.1 channel (Homo sapiens)
# Construct: expressed in transfected cells
# protocolDescription: Block of cloned hNav1.1 channel in CHO cells (IonWorks Quattro)
# Assay type: cell-based
# studyConditions: hNav1.1 in CHO cells; inactivation state block (TP12); read-out: IC50 Inactivated state
# Method: Data was corrected for leak current. The tonic block was calculated as: % Block (Tonic)=(1−ITP1,TA/ITP1,Control)×100%, where ITP1, Control and ITP1, TA are the inward peak Na^+ currents elicited by the TP1 in control and in the presence of a test article, respectively. 10 Hz Block—the frequency-dependent block at stimulation frequency 10 Hz was calculated as: […]
Counter-ions that a name gives are not always drawn.
Please respond with reported pIC50 for every item in the list.
One number for each entry, as −log10 of the molar value.

Answered examples (5):
Cc1cccc(C)c1OCC(C)NC(=O)[C@@H](N)CCC(N)=O (some centres unmarked) [Mexiletine glutamine amide] = 4.17
Cc1cccc(C)c1OCC(C)NC(=O)C1CCCCN1 (centres unmarked) [Mexiletine pipecolic acid amide] = 5.57
Cc1cccc(C)c1OCC(C)NC(=O)C(N)C1CC1 (centres unmarked) [Mexiletine cyclopropyl glycine amide] = 4.37
Cc1cccc(C)c1OCC(C)NC(=O)C(N)C(C)O (centres unmarked) [Mexiletine threonine amide] = 4.94
Cc1cccc(C)c1OCC(C)NC(=O)CCN (stereo not drawn) [Mexiletine β alanine amide] = 4.63

Give me pIC50 for each of these molecules, listed below.
1. Cc1cccc(C)c1OCC(C)NC(=O)C(N)CN (stereo not drawn) [Mexiletine β amino alanine amide]
2. Cc1cccc(C)c1OCC(C)NC(=O)CN(C)C (centres unmarked) [Mexiletine dimethylglycine amide]
3. Cc1cccc(C)c1OCC(C)NC(=O)c1cccnc1 (centres unmarked) [Mexiletine nicotinic acid amide]
4. Cc1cccc(C)c1OCC(C)NC(=O)C(N)Cc1c[nH]cn1 (centres unmarked) [Mexiletine histidine amide]
5. Cc1cccc(C)c1OCC(C)NC(=O)C(N)CCCNC(N)=O (centres unmarked) [Mexiletine citrulline amide]
6. Cc1cccc(C)c1OCC(C)NC(=O)C(N)CO (centres unmarked) [Mexiletine serine amide]
7. Cc1cccc(C)c1OCC(C)NC(=O)c1ccncc1 (centres unmarked) [Mexiletine isonicotinic acid amide]

4.21
5.49
4.21
4.67
3.74
4.85
3.89

Please supply pIC50 for each of the following items, keeping them in order.
1. Cc1cccc(C)c1OCC(C)NC(=O)[C@@H](N)CCCCNC(=N)N (some centres unmarked) [Mexiletine homoarginine amide, dihydrochloride]
2. Cc1cccc(C)c1OCC(C)NC(=O)CN.O=C(O)C(F)(F)F (racemic)
3. Cc1cccc(C)c1OCC(C)N.Cl (racemic) [Mexiletine hydrochloride, reference compound]

1: 3.59; 2: 4.67; 3: 5.04
